Below is a list of entries, each paired with its recorded pEC50 value.
- TESTED_ON: human GPR119 (Homo sapiens)
- Sequence (Q8TDV5 whole entry): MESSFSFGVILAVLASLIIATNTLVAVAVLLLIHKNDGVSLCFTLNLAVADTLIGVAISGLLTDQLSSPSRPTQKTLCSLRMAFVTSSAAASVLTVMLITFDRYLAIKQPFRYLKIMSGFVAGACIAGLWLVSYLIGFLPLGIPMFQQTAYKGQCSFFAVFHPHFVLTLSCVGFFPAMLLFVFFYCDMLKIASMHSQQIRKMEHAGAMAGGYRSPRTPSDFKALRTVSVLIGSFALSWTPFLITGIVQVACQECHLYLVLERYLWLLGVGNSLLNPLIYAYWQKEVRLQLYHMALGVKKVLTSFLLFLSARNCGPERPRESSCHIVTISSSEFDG
- PROCEDURE_DETAILS: AlphaScreen cAMP assay in MIN6 cells stably transfected with human GPR119
- CONDITION_DETAILS: Min-6/hGPR119 cells, 45 minutes incubation at room temperature
Entry type: numeric. Quantity: pEC50, the -log10 of concentration in molar units.

Record excerpt, results attached:
| SMI | ATTRIBUTE_MEASURED | QUANTITATIVE_READOUT |
| --- | --- | --- |
| CC(C)(F)CN1CCC(N(C(=O)c2ccc(-c3cnco3)c(F)c2)C2CC2)CC1 | pEC50 | 7.20 |
| N#Cc1ccc(-c2cc(C(=O)N(C3CC3)C3CCN(CC4(C(F)(F)F)CC4)CC3)no2)c(F)c1 | pEC50 | 8.22 |

pEC50 for CC(C)(F)CN1CCC(N(C(=O)c2cc(-c3ccc(C#N)cc3F)on2)C2CC2)CC1 ? 7.72
